system: MDA-MB-231 breast; assay: NCI tumour cell line growth inhibition, 48 h
READOUT: TGI

Cc1cc(NC(=O)NC(=O)c2ccccc2N(C)C)ccc1Oc1ncc(Br)cn1 : 52.5 µM
COc1ccc(/C=C/C(=O)C(C)(C)Br)cc1 : 63.1 µM
CCCn1cnc2c(SCc3ccccc3)nc(N)nc21 : > 100 µM
O=C(O)Cn1ccnc1[N+](=O)[O-] : > 100 µM
O=C(CSc1nc2ccc(I)cc2c(=O)n1Cc1ccccc1)NN1C(=O)CCC1=O : > 100 µM
O=C(c1ccco1)C1CC(c2ccc3ccccc3c2O)=NN1c1ccc([N+](=O)[O-])cc1[N+](=O)[O-] (stereo unspecified) : 68.7 µM

[Q] Return reported TGI; argument: O=S1(=O)CCN(c2ccccc2CC(c2c[nH]c3ccccc23)c2c[nH]c3ccccc23)CC1
[A] 25.1 µM

---

test system: DU-145 prostate; assay: NCI tumour cell line growth inhibition, 48 h
READOUT: log10 TGI (log10 of the value in µM)
Base-10 log of TGI, unit µM.

CCC(=O)c1cc([N+](=O)[O-])c(Br)s1 : 1.12
O=C(Nc1cc(S(=O)(=O)c2ccc(Cl)cc2)ccc1Cl)c1cc(I)cc(I)c1O : 1.49
NC(N)=N/N=C/c1c(-c2ccc(Cl)c([N+](=O)[O-])c2)nc2n1CCS2 : 1.45
COc1ccc(/C=C/C(=O)C(C)(C)Br)cc1 : 1.57

[Q] Return reported log10 TGI; argument: Cc1c2cccc-2ccc2c1[nH]c1ccccc12
[A] 1.20

[Q] Return reported log10 TGI; argument: O=C(Nc1ccc(Cl)cc1)Nc1ccccc1CNc1nc(Nc2ccc(OCCN3CCCC3)cc2)ncc1Cl
[A] 0.45

[Q] Return reported log10 TGI; argument: Fc1c[c-]c(-c2ccccn2)c(F)c1.[CH3-].[Pt+2].c1ccc(P(C[PH+](c2ccccc2)c2ccccc2)c2ccccc2)cc1
[A] 0.81

---

Below: a set of entries, each annotated with reported TGI.
test system: MDA-MB-231 breast; assay: NCI tumour cell line growth inhibition, 48 h
Record the value in µM, omitting the unit from your answer.

Examples from the recorded data:
c1ccc(CC(NCCNC(Cc2ccccc2)c2ccccc2)c2ccccc2)cc1 (stereo not given) : 1.24
CC(=O)O[C@H]1C(=O)N(c2cc3c4ccccc4ccc3c3ccccc23)[C@@H]1c1ccccc1 : 48.2

// switching to the query compound
[Q] Return reported TGI; argument: CN(C)C(=O)SC1=C(c2c(Cl)cccc2Cl)C(=O)c2ccccc21
[A] 13.7

---

test system: UACC-62 melanoma; test: NCI tumour cell line growth inhibition, 48 h
Binning of TGI into classes: Low = under 4 µM, Medium = from 4 µM up to 30 µM, High = 30 µM and over

# example entries with known answers
CC1(C)CC(=O)c2c(oc3cc(O)c(O)cc23)C1 : High
Nc1ncc(/C=N/O)c(NCC2(CO)CC(CCc3ccccc3)C2)n1 (stereo not given) : High
O=C(Nc1cc(S(=O)(=O)c2ccc(Cl)cc2)ccc1Cl)c1cc(I)cc(I)c1O : Medium
c1ccc(OCCSCCCCCCCCCCSCCOc2ccccc2)cc1 : High
O=CNNC(=O)Nc1ccc(Cl)cc1 : High
CCOC(=O)c1nc2ccccc2nc1NCc1ccc(Cl)cc1Cl : High
Cc1ccccc1NC(=O)C(=O)CC(=O)c1ccc([N+](=O)[O-])cc1 : High
Cc1cc2occ(-c3ccc(Cl)cc3)c2c(=O)o1 : High
O=C(OCc1ccccc1C1CSCSC1)c1cc(C(=O)OCc2ccccc2C2CSCSC2)c(C(=O)OCc2ccccc2C2CSCSC2)cc1C(=O)OCc1ccccc1C1CSCSC1 : High
COc1ccc(-c2nc(-c3cnccn3)n(C3OC(CO)C(O)C(O)C3O)n2)cc1 (stereo not given) : High

[Q] Hi there! Could you help me figure out the category for O=c1oc2ccc(Cl)cc2cc1-c1cn2ccsc2n1 please?
[A] High

[Q] Hi there! Could you help me figure out the category for COc1ccc(C(=O)c2ccc(-n3cc(/C=C/[N+](=O)[O-])c4ccccc43)cc2)cc1 please?
[A] Medium
